- experiment summary: Apparent membrane permeability of the compound in PBS buffer at pH 7.4 measured after 24 hrs by PAMPA assay
- Format: ADME
Classes by Papp at 24 h: bin 0 = under 0.07 ×10⁻⁶ cm/s, bin 1 = from 0.07 ×10⁻⁶ cm/s up to 2 ×10⁻⁶ cm/s, bin 2 = 2 ×10⁻⁶ cm/s and over

substance	label class
H-RWVWRDYRGDMGFDWVWE-OH	bin 0
H-RGVARRDYRGDPGFDYWHWE-OH	bin 1
H-RWVARAYGNYGYIDVWHWE-OH	bin 1
H-RWVARRDYRFDMGFDYWHWE-OH	bin 2
H-RWVWRDYRFDMGFDWVWE-OH	bin 2
H-RWVWRDLDIATTRDYWVWE-OH	bin 1
H-RWVVRRDYRGDMGFDYWVWE-OH	bin 0
H-RWVARRDYRGDMGFDYWVWE-OH	bin 1
H-RWVVRRDYRFDMGFDYWVWE-OH	bin 2
H-RWVWSPDSSGVAYWVWE-OH	bin 1
H-RWVARRDYRFDMGFNYWVWE-OH	bin 2
H-RWVARRDYRFDMGFDYWVWE-OH	bin 2
H-RWVAREGMNTDGYFDYWHWE-OH	bin 0
H-RWVKRRDYRGDMGFDYWVWE-OH	bin 0

====

A collection of substances and their measured Papp at 24 h
- experiment summary: Apparent membrane permeability of the compound in PBS buffer at pH 7.4 measured after 24 hrs by PAMPA assay
- Assay type: ADME

substance	Papp at 24 h / ×10⁻⁶ cm/s
H-RWVARAYGNYWYIDVWHWE-OH	4.15
H-RWVAREGGWFGELAFNYWVWE-OH	2.05
H-RWVARRDYRGDMGFNYWVWE-OH	0.02
H-RWVKRRDYRFDMGFDYWVWE-OH	0.14
H-RWVAREGMNTDWYFDYWHWE-OH	0.42

====

A collection of substances and their measured Retention_time
- experiment summary: Retention time of the compound by RP-HPLC analysis
- Assay type: physicochemical
measured parameter: Retention_time (min)

substance	experimental result
H-RWVARRDYRFDMGFDYWHWE-OH	21.8
H-RWVARRDYRGDMGFDYWHWE-OH	20.3
H-RWVAREGGWFGELAFNYWVWE-OH	21.2

====

- experiment summary: Retention time of the compound by RP-HPLC analysis
- Assay type: physicochemical
measured parameter: Retention time (min)

substance	experimental result
H-RWVVRRDYRGDMGFDYWVWE-OH	20.6

====

- experiment summary: Kinetic solubility of compound in phosphate buffer at pH 7.4 by UV analysis
- Assay type: physicochemical
- assay conditions: read-out: Kinetic_solubility
measured parameter: solubility kinetic (µM)

substance	experimental result
H-RWVARRDYRGDMGFNYWVWE-OH	60
H-RWVWSPDSSGVAYWVWE-OH	530
H-RWVARRDYRGDMGFDYWVWE-OH	20
H-RWVWRDYRFDMGFDWVWE-OH	20
H-RWVARRDYRFDMGFDYWHWE-OH	10

====

A collection of substances and their measured Retention_time
- experiment summary: Retention time of the compound by RP-HPLC analysis
- Format: physicochemical
measured parameter: Retention_time (min)

substance	experimental result
H-RWVWSPDSSGVAYWVWE-OH	22.8
H-RWVARAYGNYWYIDVWHWE-OH	24.1
H-RWVWRDYRFDMGFDWVWE-OH	25.2
H-RWVARRDYRFDMGFNYWVWE-OH	22.6
H-RWVKRRDYRGDMGFDYWVWE-OH	19.5
H-RWVAREGMNTDGYFDYWHWE-OH	21.1
H-RWVARRDYRGDMGFDYWVWE-OH	21.5
H-RGVARRDYRGDPGFDYWHWE-OH	18.8
H-RWVWRDYRGDMGFDWVWE-OH	23.3
H-RWVARRDYRGDMGFNYWVWE-OH	20.9
H-RWVVRRDYRFDMGFDYWVWE-OH	23
H-RWVARAYGNYGYIDVWHWE-OH	21.9
H-RWVARRDYRFDMGFDYWVWE-OH	23.1
H-RWVWRDLDIATTRDYWVWE-OH	23.2
H-RWVAREGMNTDWYFDYWHWE-OH	23.3
